tested on: Candida parapsilosis; test: Inhibition of Candida parapsilosis ATCC 22019 growth for 48 hours in vitro.; type: functional; settings: Lodderomyces parapsilosis, ATCC 22019, 48 h; read-out: MIC
Classify by MIC. Ranges: bucket 1: < 8 µM; bucket 2: ≥ 8 µM and < 30 µM; bucket 3: ≥ 30 µM

| compound | measured.on | answer.label |
| --- | --- | --- |
| O=C1OC(COC(=O)c2ccc(Cl)cc2)C=C1c1ccc(Br)cc1 (stereo not drawn) | Candida parapsilosis | bucket 2 |
| CC(C)(C)C(=O)OCC1C=C(c2ccc(Br)cc2)C(=O)O1 (stereo not drawn) | Candida parapsilosis | bucket 2 |
| O=C1OC(COC(=O)c2ccc(Cl)cc2)C=C1c1ccc(Cl)c(Cl)c1 (stereo not drawn) | Candida parapsilosis | bucket 1 |
| OC(Cn1cncn1)(Cn1cncn1)c1ccc(F)cc1F | Candida parapsilosis | bucket 1 |
| C[C@@H]1[C@H](O)[C@@H](C)/C=C/C=C/C=C/C=C/C=C/C=C/C=C/[C@H](O[C@@H]2O[C@H](C)[C@@H](O)[C@H](N)[C@@H]2O)C[C@@H]2O[C@](O)(C[C@@H](O)C[C@@H](O)[C@H](O)CC[C@@H](O)C[C@@H](O)CC(=O)O[C@H]1C)C[C@H](O)[C@H]2C(=O)O | Candida parapsilosis | bucket 1 |
| O=C1OC(CO)C=C1c1ccc(Cl)c(Cl)c1 (stereo not drawn) | Candida parapsilosis | bucket 3 |
| O=C1OC(COC(=O)c2ccc(Cl)cc2)C=C1c1cccc(Cl)c1 (stereo not drawn) | Candida parapsilosis | bucket 3 |
| O=C1OC(CO)C=C1c1cccc(Cl)c1 (stereo not drawn) | Candida parapsilosis | bucket 3 |
| COc1ccc(C2=CC(COC(=O)C(C)(C)C)OC2=O)cc1 (stereo not drawn) | Candida parapsilosis | bucket 3 |
| CC(C)(C)C(=O)OCC1C=C(c2cccc(Cl)c2)C(=O)O1 (stereo not drawn) | Candida parapsilosis | bucket 2 |
| O=C1OC(CO)C=C1c1ccc(Br)cc1 (stereo not drawn) | Candida parapsilosis | bucket 3 |
